Source of measurements: ChEMBL document CHEMBL2086255

Procedure Text: Half life in mouse plasma at 1 uM
Format: ADME, cell-free
Respond with Fulfilled for half-life at 1 µM values of 200 min and above, Not fulfilled for values below.

Please review the entries below; each comes with its answer.
chemical_structure=C=CC(=O)Nc1ccc(S(=O)(=O)N2CCNCC2)cc1 label_value="Not fulfilled"
chemical_structure=C=CC(=O)Nc1cccc(S(=O)(=O)N2CCN(C(=O)OCc3ccccc3)CC2)c1 label_value="Not fulfilled"
chemical_structure=C=CC(=O)Nc1ccc(S(=O)(=O)N2CCN(C(=O)C3CC3)CC2)cc1 label_value=Fulfilled
chemical_structure=C=CC(=O)Nc1ncc(S(=O)(=O)N2CCN(C(=O)OC(C)(C)C)CC2)cn1 label_value="Not fulfilled"
chemical_structure=C=CC(=O)Nc1ccc(S(=O)(=O)N2CCN(C(=O)C3CC3)CC2)cn1 label_value="Not fulfilled"

Hi, just wondering whether C=CC(=O)Nc1ccc(S(=O)(=O)N2CCN(C(=O)C3CCCC3)CC2)cc1 shows half-life at 1 µM of 200 min or higher.
Fulfilled

Tell me whether half-life at 1 µM is at least 200 min here: C=CC(=O)Nc1ccc(S(=O)(=O)N2CCN(C(=O)OC(C)(C)C)CC2)cn1
Not fulfilled

Is the recorded value of half-life at 1 µM equal to or greater than 200 min for this compound? C=CC(=O)Nc1ccc(S(=O)(=O)N2CCN(C(=O)C34CC5CC(CC(C5)C3)C4)CC2)cc1
Fulfilled
